cond: human, serum, 4383 h
endpoint: Hepatotoxicity (chronic liver disease)
Answer as a number with no unit attached.

Quick one: Hepatotoxicity (chronic liver disease) for CO[C@H]1/C=C/O[C@@]2(C)Oc3c(C)c(O)c4c(c3C2=O)C2=NC3(CCN(CC(C)C)CC3)NC2=C(NC(=O)/C(C)=C\C=C\[C@H](C)[C@H](O)[C@@H](C)[C@@H](O)[C@@H](C)[C@H](OC(C)=O)[C@@H]1C)C4=O [RIFABUTIN] ? 0

Item CN(C)CCOC1=Cc2ccccc2Sc2ccc(Cl)cc21 [ZOTEPINE] has what recorded Hepatotoxicity (chronic liver disease)? 0

Consider the compound NC(=O)c1cc[n+](CC2=C(C(=O)O)N3C(=O)[C@@H](NC(=O)[C@@H](c4ccccc4)S(=O)(=O)[O-])[C@H]3SC2)cc1 [CEFSULODIN] and give its measured Hepatotoxicity (chronic liver disease). 0

Need Hepatotoxicity (chronic liver disease), item Cc1nnc2n1-c1ccc(Cl)cc1C(c1ccccc1Cl)=NC2 [TRIAZOLAM] 0

Hepatotoxicity (chronic liver disease) for C[C@H]1c2cccc(O)c2C(=O)C2=C(O)[C@]3(O)C(=O)C(C(N)=O)=C(O)[C@@H](N(C)C)[C@@H]3[C@@H](O)[C@@H]21.O [DOXYCYCLINE] ? 1

Looking for the measured Hepatotoxicity (chronic liver disease) of C[C@]1(O)CC[C@H]2[C@@H]3CCC4=CC(=O)CC[C@@H]4[C@H]3CC[C@@]21C [NORMETHANDRONE] , can you help? 0

----------
cond: human, serum, 4383 h
What Hepatotoxicity (chronic liver disease) was measured for each of the following?
Reply with just the number.

What does the record list as Hepatotoxicity (chronic liver disease) for CC(C)(C)c1ccc(C(O)CCCN2CCC(C(O)(c3ccccc3)c3ccccc3)CC2)cc1 (stereo not drawn) ? 0

# Hepatotoxicity (chronic liver disease) lookup, item "CCN(CC)C(=O)N1CCN(C)CC1" 0

Data request, read-out Hepatotoxicity (chronic liver disease), for "CN1CCN(CCCN2c3ccccc3Sc3ccc(S(=O)(=O)N(C)C)cc32)CC1" 0

Any idea what its Hepatotoxicity (chronic liver disease) is? The compound is "CCCCc1oc2ccccc2c1C(=O)c1cc(I)c(OCCN(CC)CC)c(I)c1" 8

# query: Hepatotoxicity (chronic liver disease) of entry "CN1C[C@H](CC#N)C[C@@H]2c3cccc4[nH]c(Cl)c(c34)C[C@H]21" 0

What measured Hepatotoxicity (chronic liver disease) goes with "O=C(Nc1cccc2c(=O)cc(-c3nnn[nH]3)oc12)c1ccc(OCCCCc2ccccc2)cc1" ? 0

Requested field: Hepatotoxicity (chronic liver disease). Item: "NCC[C@H](O)C(=O)N[C@@H]1C[C@H](N)[C@@H](O[C@H]2O[C@H](CN)[C@@H](O)[C@H](O)[C@H]2O)[C@H](O)[C@H]1O[C@H]1O[C@H](CO)[C@@H](O)[C@H](N)[C@H]1O" 0

// returns reported Hepatotoxicity (chronic liver disease) for input COc1cccc(C2(O)CCCCC2CN(C)C)c1 (stereo not drawn) 0

So what does the record say about Hepatotoxicity (chronic liver disease) for "CNC(=C[N+](=O)[O-])NCCSCc1csc(CN(C)C)n1" ? 0

Which Hepatotoxicity (chronic liver disease) is reported for this compound? "Cc1cc(NS(=O)(=O)c2ccc(N)cc2)nc(C)n1" 0

What Hepatotoxicity (chronic liver disease) value was documented for this compound, "Nc1nc2[nH]cc(CCc3ccc(C(=O)N[C@@H](CCC(=O)O)C(=O)O)cc3)c2c(=O)[nH]1" ? 0

# lookup: Hepatotoxicity (chronic liver disease) of Cc1ccc(S(=O)(=O)NC(=O)NN2CC3CCCC3C2)cc1 (stereo not drawn) [GLICLAZIDE] 0

Recorded Hepatotoxicity (chronic liver disease) for "Cc1ncc(C[n+]2csc(CCO)c2C)c(N)n1" , please? 1

Request the reported Hepatotoxicity (chronic liver disease) associated with "NCCC(O)(P(=O)(O)O)P(=O)(O)O" 0

Which Hepatotoxicity (chronic liver disease) reading was recorded for the compound NNc1nnc(NN)c2ccccc12 [DIHYDRALAZINE] ? 4

GET /values?readout=Hepatotoxicity (chronic liver disease)&item= "NC(=O)CC[C@@H]1NC(=O)[C@H](Cc2ccccc2)NC(=O)[C@H](Cc2ccc(O)cc2)NC(=O)CCSSC[C@@H](C(=O)N2CCC[C@H]2C(=O)N[C@H](CCCN=C(N)N)C(=O)NCC(N)=O)NC(=O)[C@H](CC(N)=O)NC1=O" 0

Need Hepatotoxicity (chronic liver disease) of Cc1cc(C(=O)NCCc2ccc(S(=O)(=O)NC(=O)NN3CCCCCC3)cc2)no1 [GLISOXEPIDE] , thanks. 0

Recorded Hepatotoxicity (chronic liver disease) for CN(C)CCC=C1c2ccccc2COc2ccccc21 [DOXEPIN] , please? 0

May I ask what Hepatotoxicity (chronic liver disease) has been recorded for "Cc1cc(C(=O)NNCc2ccccc2)no1" ? 0

Record request: Hepatotoxicity (chronic liver disease) value, item "CC(C)/N=c1\cc2n(-c3ccc(Cl)cc3)c3ccccc3nc-2cc1Nc1ccc(Cl)cc1" 0

Name the recorded Hepatotoxicity (chronic liver disease) for "C#C[C@]1(O)CC[C@H]2[C@@H]3CCC4=CCCC[C@@H]4[C@H]3CC[C@@]21C" . 0

Recorded Hepatotoxicity (chronic liver disease) of "CO[C@@]1(NC(=O)Cc2cccs2)C(=O)N2C(C(=O)O)=C(COC(N)=O)CS[C@@H]21" , please. 0

// Hepatotoxicity (chronic liver disease) lookup, key: "CCOC(=O)[C@H](CCc1ccccc1)N[C@H]1CCCN2CCC[C@@H](C(=O)O)N2C1=O" 0

I have this compound here, "C=C[C@H]1C[N@@]2CC[C@H]1C[C@H]2[C@H](O)c1ccnc2ccc(OC)cc12" , and I need its recorded Hepatotoxicity (chronic liver disease). 0

// lookup Hepatotoxicity (chronic liver disease) for "[Li]" 1

// returns reported Hepatotoxicity (chronic liver disease) for input "CC(C)C[C@H](NC(=O)[C@@H](O)[C@H](N)Cc1ccccc1)C(=O)O" 0

Which Hepatotoxicity (chronic liver disease) value belongs to "C=C(OC)C(=O)Nc1cc(OC)c(OC)cc1C(=O)O[C@H]1C[C@H](O[C@@H]2C(=O)C(NC(=O)OC)=C3/C(=C\CSSSC)[C@]2(O)C#C/C=C\C#C[C@@H]3O[C@@H]2O[C@H](C)[C@@H](NO[C@H]3C[C@H](O)[C@H](SC)[C@@H](C)O3)[C@H](O)[C@H]2O[C@H]2C[C@H](OC)[C@@H](NC(C)C)CO2)O[C@@H](C)[C@H]1O" ? 0

Record request: Hepatotoxicity (chronic liver disease) value, item O=C(O)CCNC(=O)c1ccc(/N=N/c2ccc(O)c(C(=O)O)c2)cc1 [BALSALAZIDE] 0

If you can, please state the reported Hepatotoxicity (chronic liver disease) value of CCCCC1C(=O)NN(c2ccccc2)C1=O (stereo not drawn) . 0

// returns reported Hepatotoxicity (chronic liver disease) for input CCOC(=O)C(C)(CC)Oc1ccc(Cc2ccc(Cl)cc2)cc1 (stereo not drawn) [BECLOBRATE] 0

I would be grateful if you could share the reported Hepatotoxicity (chronic liver disease) for CCC(c1ccccc1)c1c(O)c2ccccc2oc1=O (stereo not drawn) . 1

Suppose we examine the compound "COc1cc2oc(=O)c(C)c(C)c2cc1OCCCN1CCN(c2ccccc2OC)CC1" ; what Hepatotoxicity (chronic liver disease) value has been reported? 0

Any idea what Hepatotoxicity (chronic liver disease) was measured for "NCCCC(O)(P(=O)(O)O)P(=O)(O)O" ? 0

----------
protocol notes: Comments (NB not yet translated). [column 'COMMENTAIRES' in source]
cond: human
endpoint: Hepatotoxicity (comment)

// worked examples, Hepatotoxicity (comment) included
Consider the molecule "COc1ccc2[nH]cc(CCNC(C)=O)c2c1" and give its measured Hepatotoxicity (comment). AC_ANTI-ML

Consider the molecule "CC[C@H]1OC(=O)[C@H](C)[C@@H](O[C@H]2C[C@@](C)(OC)[C@@H](O)[C@H](C)O2)[C@H](C)[C@@H](O[C@@H]2O[C@H](C)C[C@H](N(C)C)[C@H]2O)[C@](C)(OC)C[C@@H](C)C(=O)[C@H](C)[C@@H](O)[C@]1(C)O" and give its measured Hepatotoxicity (comment). AC_ANTI-N

Requested field: Hepatotoxicity (comment). Item: CC(CCc1ccccc1)NCC(O)c1ccc(O)c(C(N)=O)c1 (stereo not drawn) AC_ANTI-N

Tell me the measured Hepatotoxicity (comment) of "NCCCC(O)(P(=O)(O)O)P(=O)(O)O" , please. AC_ANTI-ML

Name the reported Hepatotoxicity (comment) value associated with the molecule "C[C@]12CC[C@@H]3c4ccc(OC(=O)N(CCCl)CCCl)cc4CC[C@H]3[C@@H]1CC[C@@H]2O" NASH

Shift focus to the following entry.
Record request: Hepatotoxicity (comment) value, item "CCc1cc2c(s1)N(C)C(=O)CN=C2c1ccccc1Cl" AC_ANTI-N

----------
Would you mind telling me the reported Hepatotoxicity (granulomatous hepatitis) of each entry?
cond: human
I'd appreciate a reply containing only the number, no unit.

Looking for the measured Hepatotoxicity (granulomatous hepatitis) of "CCc1nc(N)nc(N)c1-c1ccc(Cl)cc1.COc1ncnc(NS(=O)(=O)c2ccc(N)cc2)c1OC" , can you help? 2

Given "O=c1[nH]c(=O)n([C@H]2C[C@H](O)[C@@H](CO)O2)cc1F" , state its recorded Hepatotoxicity (granulomatous hepatitis). 0

Using the record for "CN1CCC(=C2c3ccccc3CC(=O)c3sccc32)CC1" , report its Hepatotoxicity (granulomatous hepatitis). 0

Given "Oc1ccc(Cl)cc1Cc1cc(Cl)ccc1O" , state its recorded Hepatotoxicity (granulomatous hepatitis). 0

Quick one: Hepatotoxicity (granulomatous hepatitis) for CC(C)[C@](O)(C(=O)OCC1=CC[N+]2([O-])CC[C@@H](O)[C@@H]12)[C@H](C)O (some centres undefined) [INDICINE N-OXIDE] ? 0

Recorded Hepatotoxicity (granulomatous hepatitis) for "CCOC(=O)CN[C@@H](C(=O)N1CC[C@H]1C(=O)NCc1ccc(/C(N)=N\O)cc1)C1CCCCC1" , please? 0

Give the measured Hepatotoxicity (granulomatous hepatitis) of CC(=O)N1CCN(c2ccc(OCC3COC(Cn4ccnc4)(c4ccc(Cl)cc4Cl)O3)cc2)CC1 (centres undefined) . 1

# query: Hepatotoxicity (granulomatous hepatitis) of entry "O=C1Nc2ccc(Cl)cc2[C@@](C#CC2CC2)(C(F)(F)F)O1" 0

Item under review: "Cc1nc2ccc(CN(C)c3ccc(C(=O)N[C@@H](CCC(=O)O)C(=O)O)s3)cc2c(=O)[nH]1" . Reported Hepatotoxicity (granulomatous hepatitis)? 0

// query Hepatotoxicity (granulomatous hepatitis) value for entry CC(N)C12CC3CC(CC(C3)C1)C2 (centres undefined) 0

Quick one: Hepatotoxicity (granulomatous hepatitis) for "O=C(CCCN1CCC(C(=O)c2ccc(F)cc2)CC1)c1ccc(F)cc1" ? 0

May I ask what Hepatotoxicity (granulomatous hepatitis) has been recorded for "CC(=O)Oc1ccccc1C(=O)O" ? 3

State the recorded Hepatotoxicity (granulomatous hepatitis) for this entry: "CN1CCN(CCCN2c3ccccc3Sc3ccc(Cl)cc32)CC1" 0

Please look up its Hepatotoxicity (granulomatous hepatitis): "C[C@@H]1[C@H](O)[C@@H](C)/C=C/C=C/C=C/C=C/C=C/C=C/C=C/[C@H](O[C@@H]2O[C@H](C)[C@@H](O)[C@H](N)[C@@H]2O)C[C@@H]2O[C@](O)(C[C@@H](O)C[C@@H](O)[C@H](O)CC[C@@H](O)C[C@@H](O)CC(=O)O[C@H]1C)C[C@H](O)[C@H]2C(=O)O" 0

# query: Hepatotoxicity (granulomatous hepatitis) of entry "NNC(=O)c1ccncc1" 1

Requested read-out: Hepatotoxicity (granulomatous hepatitis). Entry: "O=C(O)CCC(=O)c1ccc(-c2ccccc2)cc1" 0

What does the data say about its Hepatotoxicity (granulomatous hepatitis)? Entry: CN(CCOc1ccc(CC2SC(=O)NC2=O)cc1)c1ccccn1 (centres undefined) 3

Quick one: Hepatotoxicity (granulomatous hepatitis) for "CCOc1ccc2ccccc2c1C(=O)N[C@@H]1C(=O)N2[C@@H]1SC(C)(C)[C@@H]2C(=O)O" ? 0

Sample "Cc1nnc2n1-c1ccc(Cl)cc1C(c1ccccc1)=NC2" — what was its Hepatotoxicity (granulomatous hepatitis)? 0

Any idea what its Hepatotoxicity (granulomatous hepatitis) is? The compound is "Cc1ccc(NC(=O)c2ccc(CN3CCN(C)CC3)cc2)cc1Nc1nccc(-c2cccnc2)n1" 0

Quick one: Hepatotoxicity (granulomatous hepatitis) of CC(C(=O)O)c1ccc(N2CC=CC2)c(Cl)c1 (centres undefined) ? 0

State the recorded Hepatotoxicity (granulomatous hepatitis) for this entry: CN1CCOC(c2ccccc2)c2ccccc2C1 (centres undefined) 0

Fill in the blank: the reported Hepatotoxicity (granulomatous hepatitis) of "CCc1nn(CCCN2CCN(c3cccc(Cl)c3)CC2)c(=O)n1CCOc1ccccc1" is ____. 0

Give its Hepatotoxicity (granulomatous hepatitis) value. Item: CC12CCC(CC1=O)C2(C)C (centres undefined) 0

What value of Hepatotoxicity (granulomatous hepatitis) has been recorded for this entry: CCC[N+]12[C@H](O)[C@@H](CC)[C@@H]3C[C@H]1[C@@H]1N(C)c4ccccc4[C@]14C[C@H]2C3[C@H]4O (some centres undefined) 2

May I ask what Hepatotoxicity (granulomatous hepatitis) has been recorded for CCC1=C(C)CN(C(=O)NCCc2ccc(S(=O)(=O)NC(=O)N[C@H]3CC[C@H](C)CC3)cc2)C1=O [GLIMEPIRIDE] ? 0

If you can, please state the reported Hepatotoxicity (granulomatous hepatitis) value of "CNC(=C[N+](=O)[O-])NCCSCc1csc(CN(C)C)n1" . 0

Recorded Hepatotoxicity (granulomatous hepatitis) of "Cc1ncc(-c2csc(N=C(N)N)n2)[nH]1" , please. 0

State the recorded Hepatotoxicity (granulomatous hepatitis) for this entry: CC(OC(=O)OC1CCCCC1)OC(=O)C1=C(CSc2nnnn2CCN(C)C)CS[C@@H]2[C@H](NC(=O)Cc3csc(N)n3)C(=O)N12 (some centres undefined) 0

Item under review: "Cc1nc(C)c2c(n1)N(Cc1ccc(-c3ccccc3-c3nnn[nH]3)cc1)C(=O)CC2" . Reported Hepatotoxicity (granulomatous hepatitis)? 0

For "CN1CCC(=C2c3ccccc3C=Cc3ccccc32)CC1" , what is its reported Hepatotoxicity (granulomatous hepatitis)? 0

What does the record list as Hepatotoxicity (granulomatous hepatitis) for "CC1(C)S[C@@H]2[C@H](N3C(=O)[C@@H](c4ccccc4)NC3(C)C)C(=O)N2[C@H]1C(=O)O" ? 0

// query Hepatotoxicity (granulomatous hepatitis) value for entry COC(=O)C1=C(C)NC(C)=C(C(=O)OCC(C)C)C1c1ccccc1[N+](=O)[O-] (centres undefined) 0

Tell me the measured Hepatotoxicity (granulomatous hepatitis) of "Cc1ccc(-c2nc3ccc(C)cn3c2CC(=O)N(C)C)cc1" , please. 0
